// values below are reported normalized growth
Assay: chemical genetic growth profiling, strain panel (AID 1159580);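 further: tested at 20 µM; growth read once vehicle control cultures reached saturation at 30 °C; 1 = growth at the plate median or of vehicle wells; lower values mean less growth of the strain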
Conditions: S. cerevisiae deletion strains, growth OD, locus YER167W, strain BCK2, active compounds read low
The campaign covered roughly 5,500 compounds. About 2,000 (36%) were called active. Inconclusive results (about 18%) are left out. This is one part of the list.
The reply should be a number, written without any unit.

* CC(=O)O[C@@H]1c2c(ccc3ccc(=O)oc23)OC(C)(C)[C@@H]1OC(=O)CC(C)C | 1
* CC(=O)O[C@@H]1CC2C(C)(C)CCC[C@]2(C)C2CC[C@]3(C)C(=CC(=O)O[C@H]3c3ccoc3)[C@@]21C (some centres undefined) | 1.02
* COC(=O)C(N)CS (centres undefined) | 0.971

// below: normalized growth requested for another molecule
Quick note, normalized growth for "Nc1ccc(S(=O)(=O)Nc2ncccn2)cc1" landed at 0.99
